method_description: UWB1.289 ovarian carcinoma cell growth inhibition, synergistic combos for chromothripsis tumors, BGB or cisplatin combos (AID 1671456);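 further: cells exposed to compound for four days; 0% = vehicle DMSO and 100% = killing by high DMSO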
experimental_setup: UWB1.289 ovarian carcinoma cells, at 0.5 µM, active compounds read high

- compound: "CN1CCN(c2c(F)cc3c(=O)c(C(=O)O)cn4c3c2OCN4C)CC1"
  inhibition (%): -1.17
- compound: "O=c1cc[nH]c(=O)[nH]1"
  inhibition (%): -18
- compound: "CNC1CCCN(c2c(F)cc3c(=O)c(C(=O)O)cn(C4CC4)c3c2OC)C1 (stereo unspecified)"
  inhibition (%): -14.8
- compound: "C[C@@H](CN1CC(=O)NC(=O)C1)N1CC(=O)NC(=O)C1"
  inhibition (%): -10.9
- compound: "Cc1ccc2nc(N)[nH]c(=O)c2c1Sc1ccncc1"
  inhibition (%): -17.5
- compound: "O=c1[nH]c(=O)n([C@H]2C[C@H](O)[C@@H](CO)O2)cc1Br"
  inhibition (%): 3.4

---

// values below are reported luciferase signal
system: Mitogen-activated protein kinase 7 (Homo sapiens) (UniProt Q13164)
Sequence (Q13164 whole entry, looked up, the tested form may be a part): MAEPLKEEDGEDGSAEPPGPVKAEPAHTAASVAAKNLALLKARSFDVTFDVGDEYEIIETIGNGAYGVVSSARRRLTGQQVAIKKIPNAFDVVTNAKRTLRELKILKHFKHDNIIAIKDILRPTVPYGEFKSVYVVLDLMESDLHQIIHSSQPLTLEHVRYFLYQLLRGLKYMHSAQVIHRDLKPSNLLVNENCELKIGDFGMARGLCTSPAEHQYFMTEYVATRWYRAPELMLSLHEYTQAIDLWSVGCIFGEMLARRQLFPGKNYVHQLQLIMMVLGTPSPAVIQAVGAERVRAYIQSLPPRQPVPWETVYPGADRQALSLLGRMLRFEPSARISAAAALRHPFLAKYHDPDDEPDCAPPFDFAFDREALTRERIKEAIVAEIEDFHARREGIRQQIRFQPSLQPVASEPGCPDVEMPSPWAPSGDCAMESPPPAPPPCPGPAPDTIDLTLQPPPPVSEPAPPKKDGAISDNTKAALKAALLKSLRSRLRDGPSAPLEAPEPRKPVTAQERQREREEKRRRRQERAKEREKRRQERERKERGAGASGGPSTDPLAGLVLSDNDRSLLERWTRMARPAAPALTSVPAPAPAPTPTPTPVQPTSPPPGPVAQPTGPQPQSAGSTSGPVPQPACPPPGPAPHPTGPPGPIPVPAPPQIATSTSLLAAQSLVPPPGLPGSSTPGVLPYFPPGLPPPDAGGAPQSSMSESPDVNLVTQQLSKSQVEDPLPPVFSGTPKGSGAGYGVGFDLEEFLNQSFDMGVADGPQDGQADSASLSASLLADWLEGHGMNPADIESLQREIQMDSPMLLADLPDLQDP
method_description: ERK5 transactivation activators in reporter cells, primary screen, cell-based, HTS (AID 1508626);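 further: luciferase driven by Gal4-ERK5 fusion binding five Gal4 sites before minimal TATA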
experimental_setup: HeLa Gal4-ERK5 transactivation, 18 h, at 5 µM, active compounds read high
Calls of active or inactive are those of the source.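 How the source made its calls: active means luciferase signal above three times the same-plate solvent-only control wells; inactive means the rest.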
endpoint_label: luciferase signal

- compound: "CC1=C(C/C=C(\\C)CCC[C@H](C)CCC[C@H](C)CCCC(C)C)C(=O)c2ccccc2C1=O"
  result: "156 AU (inactive)"
- compound: "CC(=O)NCCCS(=O)(=O)O"
  result: "52 AU (inactive)"
- compound: "COC(=O)C[C@H]1C2(C)CC34OC5(C)O[C@@]6([C@H](OC(C)=O)C(OC(C)=O)[C@]7(C)C(/C(=C(/O)C(C)C)C(=O)O[C@H]7c7ccoc7)[C@@]6(O5)[C@H](OC(C)=O)[C@@]3(O)C2OC(=O)C(C)C)[C@]14C (some centres undefined)"
  result: "24 AU (inactive)"
- compound: "COc1c2ccoc2cc2oc(C)cc(=O)c12"
  result: "52 AU (inactive)"
- compound: "C#C[C@]1(OC(C)=O)CC[C@H]2[C@@H]3CCC4=CC(=O)CC[C@@H]4[C@H]3CC[C@@]21C"
  result: "28 AU (inactive)"
- compound: "Cc1cccc(C)c1NC(=O)C1CCCCN1C (centres undefined)"
  result: "68 AU (inactive)"
- compound: "O=C(O)CCCN1C(=O)c2cccc3cccc(c23)C1=O"
  result: "48 AU (inactive)"
- compound: "O=C1c2ccccc2C(=O)C1c1ccc(Br)cc1"
  result: "56 AU (inactive)"
- compound: "COc1ccc(-c2cc(=O)c3c(OC)c(OC)c(OC)c(OC)c3o2)cc1OC"
  result: "48 AU (inactive)"

---

method_description: glucagon-like peptide 1 release enhancers, primary assay, NCI-H716 cell line, NPC library (AID 1117341)
experimental_setup: NCI-H716 cells, at 10 µM
Active and inactive are the calls of the source.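 How the source made its calls: active means compound raises GLP1 secretion from the human gut endocrine cells, with no numeric limit stated; inactive means the rest.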
Possible outcomes: active, inactive

- compound: "Cc1cc(CC(C)CC(C)(C)C)n(O)c(=O)c1 (stereo unspecified)"
  group: "inactive"
- compound: "COc1cc(/C=C/C(N)=O)cc(OC)c1OC"
  group: "inactive"
- compound: "O=C(CS(=O)Cc1ccco1)NC/C=C\\COc1cc(CN2CCCCC2)ccn1 (stereo unspecified)"
  group: "inactive"
- compound: "CC(C)(C)c1ccc(C(=O)CCCN2CCC(OC(c3ccccc3)c3ccccc3)CC2)cc1"
  group: "inactive"
- compound: "NS(=O)(=O)c1ccc(C(=O)O)cc1"
  group: "inactive"
- compound: "CCCCc1ncc(/C=C(\\Cc2cccs2)C(=O)O)n1Cc1ccc(C(=O)O)cc1"
  group: "inactive"
- compound: "CC(C)(C)c1ccc(C(O)CCCN2CCC(C(O)(c3ccccc3)c3ccccc3)CC2)cc1 (stereo unspecified)"
  group: "active"
- compound: "CC(C)OC(=O)c1cc2c(OCC(O)CNC(C)(C)C)cccc2[nH]1 (stereo unspecified)"
  group: "inactive"
- compound: "CCN1CCC[C@H]1CNC(=O)c1c(OC)ccc(Br)c1OC"
  group: "inactive"
- compound: "CC(=O)[C@H]1CC[C@H]2[C@@H]3CC=C4C[C@@H](O)CC[C@]4(C)[C@H]3CC[C@]12C"
  group: "inactive"
- compound: "CCCCCCCCCCOc1cc2c(=O)c(C(=O)OCC)c[nH]c2cc1OCC"
  group: "inactive"

---

method_description: HCT116 colon cancer cell growth inhibition, primary screen, CellTiter-Glo luminescence, NPC library (AID 1117342)
experimental_setup: at 20 µM (top of the series)
Where a SMILES comes first, the peptide text is derived from it. [ ]: non-standard residue; d: D form. The star is where a group is joined. Sta = CC(C)C[C@H](N)[C@@H](O)CC(=O)O; Isovaleryl = CC(C)CC(=O)*
This listing pairs compounds with measured inhibition of viability.
endpoint_label: inhibition of viability (%)

- compound: "C[C@@H](c1ncncc1F)C(O)(Cn1cncn1)c1ccc(F)cc1F (stereo not given in full)"
  endpoint_label: "inhibition of viability"
  quantitative_result: 11.9
- compound: "CCCCOCCOCCOCc1cc2c(cc1CCC)OCO2"
  endpoint_label: "inhibition of viability"
  quantitative_result: 24.7
- compound: "CC(C)CC(=O)N[C@H](C(=O)N[C@H](C(=O)N[C@@H](CC(C)C)[C@@H](O)CC(=O)N[C@@H](C)C(=O)N[C@@H](CC(C)C)[C@@H](O)CC(=O)O)C(C)C)C(C)C (Isovaleryl-VV[Sta]A[Sta]-OH)"
  endpoint_label: "inhibition of viability"
  quantitative_result: 4
- compound: "CCCCc1ncc(/C=C(\\Cc2cccs2)C(=O)O)n1Cc1ccc(C(=O)O)cc1"
  endpoint_label: "inhibition of viability"
  quantitative_result: 0
- compound: "CC(S)C(=O)NCC(=O)O (stereo not given)"
  endpoint_label: "inhibition of viability"
  quantitative_result: -7.95
- compound: "Cc1nc(Nc2ncc(C(=O)Nc3c(C)cccc3Cl)s2)cc(N2CCN(CCO)CC2)n1"
  endpoint_label: "inhibition of viability"
  quantitative_result: 69.7
- compound: "CCCCCCCCCCCCCCCC(=O)NCCO"
  endpoint_label: "inhibition of viability"
  quantitative_result: 1.3
- compound: "CCN(CC)CC(=O)Nc1c(C)cc(C)cc1C"
  endpoint_label: "inhibition of viability"
  quantitative_result: 4.6
- compound: "CC(=O)c1ccc2c(c1)N(CCCN(C)C)c1ccccc1S2"
  endpoint_label: "inhibition of viability"
  quantitative_result: 55.9
- compound: "CNCc1ccccc1"
  endpoint_label: "inhibition of viability"
  quantitative_result: -14.3
- compound: "COc1cc(C(C)=O)ccc1OCCCN1CCC(c2noc3cc(F)ccc23)CC1"
  endpoint_label: "inhibition of viability"
  quantitative_result: 80.7
- compound: "C/C(=C(\\CCOP(=O)(O)O)SC(=O)c1ccccc1)N(C=O)Cc1cnc(C)nc1N"
  endpoint_label: "inhibition of viability"
  quantitative_result: 4.6
- compound: "Cc1ccc(C(=O)c2cc(O)c(O)c([N+](=O)[O-])c2)cc1"
  endpoint_label: "inhibition of viability"
  quantitative_result: 55.5
- compound: "CC1(COc2ccc(CC3SC(=O)NC3=O)cc2)CCCCC1 (stereo not given)"
  endpoint_label: "inhibition of viability"
  quantitative_result: 101
- compound: "C1COC(NC(C2CC2)C2CC2)=N1"
  endpoint_label: "inhibition of viability"
  quantitative_result: 5.7
- compound: "CNC(=O)c1cc(Oc2ccc(NC(=O)Nc3ccc(Cl)c(C(F)(F)F)c3)cc2)ccn1"
  endpoint_label: "inhibition of viability"
  quantitative_result: 124
- compound: "CSCC[C@H](NC(=O)[C@H](Cc1c[nH]c2ccccc12)NC(=O)CCNC(=O)OC(C)(C)C)C(=O)N[C@@H](CC(=O)O)C(=O)N[C@@H](Cc1ccccc1)C(N)=O"
  endpoint_label: "inhibition of viability"
  quantitative_result: -11.9
- compound: "COC(=O)C1=C(C)NC(C)=C(C(=O)OCCN(C)Cc2ccccc2)C1c1cccc([N+](=O)[O-])c1 (stereo not given)"
  endpoint_label: "inhibition of viability"
  quantitative_result: 104
- compound: "CCCCCCCCCCCCCCC[C@H](O)[C@@H](N)CO"
  endpoint_label: "inhibition of viability"
  quantitative_result: 69.8
- compound: "CCC(=O)c1ccc(O)cc1"
  endpoint_label: "inhibition of viability"
  quantitative_result: 16.7
- compound: "O=C(Oc1ccccc1C(=O)O)c1ccccc1O"
  endpoint_label: "inhibition of viability"
  quantitative_result: 0.8
- compound: "CCCCCCCCCCCCCCCC[N+](C)(C)CCN(Cc1ccc(OC)cc1)c1ncccn1"
  endpoint_label: "inhibition of viability"
  quantitative_result: 101
- compound: "CCOC(=O)c1ccc(O)cc1"
  endpoint_label: "inhibition of viability"
  quantitative_result: 4.1
- compound: "C#CCN(C)CCCOc1ccc(Cl)cc1Cl"
  endpoint_label: "inhibition of viability"
  quantitative_result: 2.63
- compound: "OCc1ccccn1"
  endpoint_label: "inhibition of viability"
  quantitative_result: -23.7
- compound: "Cc1ccc(Nc2nccc(N(C)c3ccc4c(C)n(C)nc4c3)n2)cc1S(N)(=O)=O"
  endpoint_label: "inhibition of viability"
  quantitative_result: 48.8
- compound: "CC(C)CCCC(C)NCCC(C)C (stereo not given)"
  endpoint_label: "inhibition of viability"
  quantitative_result: -0.4
- compound: "CCN(CC)CCOc1ccc2c(c1)C(=O)c1cc(OCCN(CC)CC)ccc1-2"
  endpoint_label: "inhibition of viability"
  quantitative_result: 52.8
- compound: "CCCCCCCCOc1ccccc1C(=O)Nc1ccc(C(=O)OCC[N+](C)(CC)CC)cc1"
  endpoint_label: "inhibition of viability"
  quantitative_result: 98.4
- compound: "CC1(C)[C@@H]2CC[C@@]1(C)C(=O)C2"
  endpoint_label: "inhibition of viability"
  quantitative_result: 10.9
- compound: "Cc1cc2c(cc1S(N)(=O)=O)S(=O)(=O)CCC2"
  endpoint_label: "inhibition of viability"
  quantitative_result: -0.03
- compound: "CCCn1cnc2c1c(=O)n(CCCCC(C)=O)c(=O)n2C"
  endpoint_label: "inhibition of viability"
  quantitative_result: 20.6
- compound: "CC1(C)[C@@H](OC(=O)CCC(=O)O)CC[C@]2(C)[C@H]3C(=O)C=C4[C@@H]5C[C@@](C)(C(=O)O)CC[C@]5(C)CC[C@@]4(C)[C@]3(C)CC[C@@H]12"
  endpoint_label: "inhibition of viability"
  quantitative_result: 43.6
- compound: "CCCCCCCCCCCCCCCCO"
  endpoint_label: "inhibition of viability"
  quantitative_result: -2.3
- compound: "CCOc1ccccc1C(N)=O"
  endpoint_label: "inhibition of viability"
  quantitative_result: 22.9
- compound: "CCc1cccc(CC)c1NC(=O)CN(CC(=O)O)CC(=O)O"
  endpoint_label: "inhibition of viability"
  quantitative_result: 12
- compound: "CC1=C(C/C=C(\\C)CCC[C@H](C)CCC[C@H](C)CCCC(C)C)C(=O)c2ccccc2C1=O"
  endpoint_label: "inhibition of viability"
  quantitative_result: -10.9
- compound: "O=c1[nH]c(=O)c2ccccc2o1"
  endpoint_label: "inhibition of viability"
  quantitative_result: -33.3
- compound: "O=P(O)(O)C(O)(Cn1ccnc1)P(=O)(O)O"
  endpoint_label: "inhibition of viability"
  quantitative_result: 16.4
- compound: "C=CCc1cc(OC)c(O)c(C(=O)NCCO)c1"
  endpoint_label: "inhibition of viability"
  quantitative_result: -7.7
- compound: "O=C(NCCCN1CCOCC1)c1ccc(Cl)cc1"
  endpoint_label: "inhibition of viability"
  quantitative_result: 0
- compound: "CNC1CCCN(c2c(F)cc3c(=O)c(C(=O)O)cn(C4CC4)c3c2OC)C1 (stereo not given)"
  endpoint_label: "inhibition of viability"
  quantitative_result: 10.1
- compound: "CS(=O)(=O)c1ccc([C@@H](O)[C@@H](CF)NC(=O)C(Cl)Cl)cc1"
  endpoint_label: "inhibition of viability"
  quantitative_result: 14.2
- compound: "Cc1nc2c([nH]1)c(=O)n(C)c(=O)n2Cc1ccco1"
  endpoint_label: "inhibition of viability"
  quantitative_result: 4.7
- compound: "OC(CCN1CCCCC1)(c1ccccc1)C1CC2C=CC1C2 (stereo not given)"
  endpoint_label: "inhibition of viability"
  quantitative_result: 36.4
